- tested-system: casein kinase II (CK II) (Homo sapiens)
- Construct: purchased Upstate Biotechnology
- protocol: CK II kinase test (Upstate Biotechnology kit)
- Assay type: biochemical
- experimental-setup: substance concentration of 100 μM; ATP 50 μM
For each entry below, report its inhibition at 100 µM value.
Answer in %, number only, no unit symbol.

Asked: Query (compound): NC(=O)[C@H](Cc1cccc(C(F)(F)F)c1)NC(=O)c1ccc2nc(-c3ccncc3)[nH]c2c1 [Example 8] ; field requested: inhibition at 100 µM
Given back: 7

Asked: Query (compound): NC(=O)[C@H](Cc1cccs1)NC(=O)c1ccc2nc(-c3ccncc3)[nH]c2c1 [Example 11] ; field requested: inhibition at 100 µM
Given back: 0

Asked: Query (compound): NC(=O)[C@H](Cc1ccc(C(=O)O)cc1)NC(=O)c1ccc2nc(-c3ccncc3)[nH]c2c1 [Example 14] ; field requested: inhibition at 100 µM
Given back: 0

Asked: Query (compound): NC(=O)[C@H](Cc1cccnc1)NC(=O)c1ccc2nc(-c3ccncc3)[nH]c2c1 [Example 12] ; field requested: inhibition at 100 µM
Given back: 0

Asked: Query (compound): NC(=O)[C@H](Cc1ccc2ccccc2n1)NC(=O)c1ccc2nc(-c3ccncc3)[nH]c2c1 [Example 19] ; field requested: inhibition at 100 µM
Given back: 70

Asked: Query (compound): O=C(N[C@@H](Cc1ccc(F)cc1)C(=O)O)c1ccc2nc(-c3ccncc3)[nH]c2c1 [Example 7] ; field requested: inhibition at 100 µM
Given back: 10

Asked: Query (compound): O=C(N[C@H](Cc1ccc(Cl)cc1)C(=O)O)c1ccc2nc(-c3ccncc3)[nH]c2c1 [Example 6] ; field requested: inhibition at 100 µM
Given back: 14

Asked: Query (compound): O=C(N[C@@H](Cc1ccc(F)cc1F)C(=O)O)c1ccc2nc(-c3ccncc3)[nH]c2c1 [Example 5] ; field requested: inhibition at 100 µM
Given back: 19

* * *

- tested-system: casein kinase II (CK II) (Homo sapiens, UniProt P68400)
- Construct: purchased Upstate Biotechnology
- Sequence (P68400 whole entry): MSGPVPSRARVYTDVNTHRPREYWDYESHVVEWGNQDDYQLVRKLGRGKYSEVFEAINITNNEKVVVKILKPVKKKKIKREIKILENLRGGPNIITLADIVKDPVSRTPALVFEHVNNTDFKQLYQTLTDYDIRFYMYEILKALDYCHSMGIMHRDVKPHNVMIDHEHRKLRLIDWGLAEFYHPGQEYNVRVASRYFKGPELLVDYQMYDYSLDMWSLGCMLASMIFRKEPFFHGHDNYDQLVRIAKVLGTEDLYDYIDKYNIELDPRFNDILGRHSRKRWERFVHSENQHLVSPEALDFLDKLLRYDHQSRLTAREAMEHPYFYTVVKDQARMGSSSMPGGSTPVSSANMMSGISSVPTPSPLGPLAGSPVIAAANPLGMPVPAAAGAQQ
- Sequence (P67870 whole entry partner): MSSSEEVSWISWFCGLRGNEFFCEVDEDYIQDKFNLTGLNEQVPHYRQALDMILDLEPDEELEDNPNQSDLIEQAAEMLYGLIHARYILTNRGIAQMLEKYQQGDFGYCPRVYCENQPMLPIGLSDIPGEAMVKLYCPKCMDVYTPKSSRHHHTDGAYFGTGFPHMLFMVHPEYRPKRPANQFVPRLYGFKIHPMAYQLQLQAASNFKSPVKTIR
- protocol: CK II kinase test (Upstate Biotechnology kit)
- Type: biochemical
- experimental-setup: substance concentration of 100 μM; ATP 50 μM
quantity-name: inhibition at 100 µM (%)
Answer in %, number only, no unit symbol.

Asked: Query (compound): N#Cc1ccc(C[C@H](NC(=O)c2ccc3nc(-c4ccncc4)[nH]c3c2)C(N)=O)cc1 [Example 16] ; field requested: inhibition at 100 µM
Given back: 4

Asked: Query (compound): CC(C)(C)c1ccccc1SC[C@H](NC(=O)c1ccc2[nH]c(-c3ccncc3)nc2c1)C(=O)O [Example 112] ; field requested: inhibition at 100 µM
Given back: 17

Asked: Query (compound): CSCC[C@H](NC(=O)c1ccc2[nH]c(-c3ccncc3)nc2c1)C(N)=O [Example 107] ; field requested: inhibition at 100 µM
Given back: 92

Asked: Query (compound): NC(=O)[C@H](Cc1cc(Br)c(O)c(Br)c1)NC(=O)c1ccc2nc(-c3ccncc3)[nH]c2c1 [Example 20] ; field requested: inhibition at 100 µM
Given back: 60

* * *

- tested-system: IκB kinase (Homo sapiens, UniProt O14920+O15111)
- Construct: The kinase was purified from HeLa cell extracts; endogenous in cells
- Sequence (O14920 whole entry): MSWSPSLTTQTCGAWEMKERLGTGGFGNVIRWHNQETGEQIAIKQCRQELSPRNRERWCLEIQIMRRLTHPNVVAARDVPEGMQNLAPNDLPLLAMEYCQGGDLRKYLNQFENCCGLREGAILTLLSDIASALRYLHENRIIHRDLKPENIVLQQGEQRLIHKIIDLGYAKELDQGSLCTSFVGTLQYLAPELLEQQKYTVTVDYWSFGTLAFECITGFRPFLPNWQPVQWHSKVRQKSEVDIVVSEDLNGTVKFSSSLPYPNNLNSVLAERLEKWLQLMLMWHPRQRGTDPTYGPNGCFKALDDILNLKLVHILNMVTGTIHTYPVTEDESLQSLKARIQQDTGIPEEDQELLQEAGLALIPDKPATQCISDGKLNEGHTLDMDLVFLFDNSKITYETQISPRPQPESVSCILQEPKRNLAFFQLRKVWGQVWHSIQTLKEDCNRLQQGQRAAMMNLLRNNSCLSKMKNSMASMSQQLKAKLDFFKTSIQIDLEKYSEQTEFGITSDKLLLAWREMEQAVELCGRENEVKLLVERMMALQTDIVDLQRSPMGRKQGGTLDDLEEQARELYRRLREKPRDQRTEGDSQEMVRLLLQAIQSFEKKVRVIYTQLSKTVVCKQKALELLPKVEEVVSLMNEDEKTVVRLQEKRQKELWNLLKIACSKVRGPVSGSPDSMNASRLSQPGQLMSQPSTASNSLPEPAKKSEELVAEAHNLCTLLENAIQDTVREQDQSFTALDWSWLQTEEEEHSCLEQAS
- Sequence (O15111 whole entry): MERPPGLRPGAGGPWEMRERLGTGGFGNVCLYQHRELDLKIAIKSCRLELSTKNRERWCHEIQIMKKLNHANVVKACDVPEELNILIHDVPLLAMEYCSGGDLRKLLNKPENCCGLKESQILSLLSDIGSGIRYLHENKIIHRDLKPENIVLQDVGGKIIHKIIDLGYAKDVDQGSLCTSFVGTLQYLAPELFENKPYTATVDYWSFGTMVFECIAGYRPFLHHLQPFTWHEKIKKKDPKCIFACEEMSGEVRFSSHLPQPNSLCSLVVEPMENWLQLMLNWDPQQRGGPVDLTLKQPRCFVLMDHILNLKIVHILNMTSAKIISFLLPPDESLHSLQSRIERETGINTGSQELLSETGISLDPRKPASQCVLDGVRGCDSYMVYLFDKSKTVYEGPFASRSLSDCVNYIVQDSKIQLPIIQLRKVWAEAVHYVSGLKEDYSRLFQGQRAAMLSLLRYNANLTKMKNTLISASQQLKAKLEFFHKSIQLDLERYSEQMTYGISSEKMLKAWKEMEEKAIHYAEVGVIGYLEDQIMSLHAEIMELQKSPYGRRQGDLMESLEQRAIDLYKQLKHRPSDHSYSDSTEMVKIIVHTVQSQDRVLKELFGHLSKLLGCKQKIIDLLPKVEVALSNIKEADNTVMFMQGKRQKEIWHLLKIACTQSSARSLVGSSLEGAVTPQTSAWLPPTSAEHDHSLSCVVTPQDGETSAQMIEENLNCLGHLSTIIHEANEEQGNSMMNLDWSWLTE
- Sequence (Q9Y6K9 whole entry partner): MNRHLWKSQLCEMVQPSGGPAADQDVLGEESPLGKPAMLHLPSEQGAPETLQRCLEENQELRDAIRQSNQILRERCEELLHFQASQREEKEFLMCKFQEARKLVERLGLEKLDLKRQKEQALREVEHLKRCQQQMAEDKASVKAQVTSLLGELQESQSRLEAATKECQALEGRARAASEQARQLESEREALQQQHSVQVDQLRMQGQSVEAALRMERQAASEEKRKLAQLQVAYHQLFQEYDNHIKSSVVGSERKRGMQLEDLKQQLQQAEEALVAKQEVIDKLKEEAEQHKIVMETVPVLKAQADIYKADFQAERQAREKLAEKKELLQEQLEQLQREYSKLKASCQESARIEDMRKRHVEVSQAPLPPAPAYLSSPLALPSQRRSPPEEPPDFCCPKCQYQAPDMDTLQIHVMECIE
- protocol: IκB kinase filter test
- experimental-setup: kinase purified from HeLa cell extracts; 50 μM ATP; substrate peptide 20 μM
For each entry below, report its pIC50 value.
Worth noting: pIC50 values are minus log10 of concentrations stated in mol/L.

Asked: Query (compound): O=C(N[C@H](Cc1ccc(Cl)cc1)C(=O)O)c1ccc2nc(-c3ccncc3)[nH]c2c1 ; field requested: pIC50
Given back: 4.14

Asked: Query (compound): NC(=O)[C@H](Cc1cccnc1)NC(=O)c1ccc2nc(-c3ccncc3)[nH]c2c1 ; field requested: pIC50
Given back: 4.38

Asked: Query (compound): NC(=O)[C@H](Cc1ccc2ccccc2n1)NC(=O)c1ccc2nc(-c3ccncc3)[nH]c2c1 ; field requested: pIC50
Given back: 6.00

Asked: Query (compound): NC(=O)[C@H](Cc1cccs1)NC(=O)c1cccc2nc(-c3ccncc3)[nH]c12 ; field requested: pIC50
Given back: 4.80

Asked: Query (compound): NC(=O)[C@H](CC1CC1)NC(=O)c1cccc2nc(-c3ccncc3)[nH]c12 ; field requested: pIC50
Given back: 4.44

Asked: Query (compound): NC(=O)[C@H](Cc1cc(Br)c(O)c(Br)c1)NC(=O)c1ccc2nc(-c3ccncc3)[nH]c2c1 ; field requested: pIC50
Given back: 4.47
